These measurements were taken from ChEMBL document CHEMBL1137735.

Tested on: A549
PROCEDURE DETAILS: Cytotoxicity against human A549 cells by SRB assay
Assay type: functional, cell-based
RESULT TYPE: IC50 (µM)
Express it in µM; write the number only.

CCCCC(CCCC)N1N=C(c2cc(OC)c(OC)c(OC)c2)OCC1=O = 9.91

// below: IC50 requested for another molecule
QUERY: // map `CCCCC(CCCC)N1N=C(c2ccc(Cl)cc2)OCC1=O` to recorded IC50 (system: A549)
RESULT: 24.8

* * *

Species: Rattus norvegicus
PROCEDURE DETAILS: Inhibition of rat brain mitochondrial MAO at 1 mmol/L by kynuramine fluorimetric assay
RESULT TYPE: inhibition (%)
Express it in %; write the number only.

Use these answered entries as a reference point.
CCCCC(CCCC)NNC(=O)c1ccc2ccccc2c1 = 33.1
CCc1ccc(C(=O)NNCCC#N)cc1 = 71.2
CCCCC(CCCC)NNC(=O)c1cc(OC)c(OC)c(OC)c1 = 35.5
CCCCC(CCCC)NNC(=O)c1ccc2c(c1)OCO2 = 62.8
CCCCC(CCCC)NNC(=O)c1ccccc1Cl = 14.2

QUERY: Give the measured inhibition of `CCCCC(CCCC)NNC(=O)c1cccnc1OCC` .
RESULT: 21.7

QUERY: Give the measured inhibition of `CCCCC(CCCC)NNC(=O)c1ccc(Cl)cc1` .
RESULT: 28.6

QUERY: Give the measured inhibition of `CCCCC(CCCC)NNC(=O)c1ccc(Cl)cc1Cl` .
RESULT: 10.5

* * *

Species on record: Rattus norvegicus
PROCEDURE DETAILS: Inhibition of rat brain mitochondrial MAO at 0.1 mmol/L by kynuramine fluorimetric assay
Below, each entry is listed alongside its reported inhibition.
Express it in %; write the number only.

Use these answered entries as a reference point.
CCCCC(CCCC)NNC(=O)c1ccccc1Cl = 5.13
CCc1ccc(C(=O)NNCCC#N)cc1 = 37
CCCCC(CCCC)NNC(=O)c1cc(OC)c(OC)c(OC)c1 = 8.16
CCCCC(CCCC)NNC(=O)c1ccc2c(c1)OCO2 = 13.8
CCCCC(CCCC)NNC(=O)c1ccc(Cl)cc1 = 2.71
CCCCC(CCCC)NNC(=O)c1ccc2ccccc2c1 = 8.47
CCCCC(CCCC)NNC(=O)c1cccnc1OCC = 6.09

// below: inhibition requested for another compound
QUERY: Give the measured inhibition of `CCCCC(CCCC)NNC(=O)c1ccc(Cl)cc1Cl` .
RESULT: 3.52

* * *

Species on record: Rattus norvegicus
PROCEDURE DETAILS: Inhibition of rat brain mitochondrial MAO at 0.08 mmol/L by kynuramine fluorimetric assay
RESULT TYPE: inhibition (%)
Express it in %; write the number only.

CCc1ccc(C2=NN(CCC#N)C(=O)CO2)cc1 = 25.5
CCCCC(CCCC)N1N=C(c2ccc3ccccc3c2)OCC1=O = 20.3
CCCCC(CCCC)N1N=C(c2cc(OC)c(OC)c(OC)c2)OCC1=O = 23.5

QUERY: Give the measured inhibition of `CCCCC(CCCC)N1N=C(c2ccc(Cl)cc2)OCC1=O` .
RESULT: 28.2

* * *

Organism: Rattus norvegicus
PROCEDURE DETAILS: Inhibition of rat brain mitochondrial MAO at 0.01 mmol/L by kynuramine fluorimetric assay
RESULT TYPE: inhibition (%)
Express it in %; write the number only.

Use these answered entries as a reference point.
CCCCC(CCCC)NNC(=O)c1ccc(Cl)cc1 = 7.52
CCCCC(CCCC)NNC(=O)c1ccccc1Cl = 6.4
CCCCC(CCCC)NNC(=O)c1cccnc1OCC = 0
CCCCC(CCCC)NNC(=O)c1ccc2ccccc2c1 = 0
CCCCC(CCCC)NNC(=O)c1ccc(Cl)cc1Cl = 9.33

QUERY: Give the measured inhibition of `CCCCC(CCCC)NNC(=O)c1ccc2c(c1)OCO2` .
RESULT: 0

QUERY: Give the measured inhibition of `CCCCC(CCCC)NNC(=O)c1cc(OC)c(OC)c(OC)c1` .
RESULT: 4.67

QUERY: Give the measured inhibition of `CCc1ccc(C(=O)NNCCC#N)cc1` .
RESULT: 2.8

* * *

Below, each entry is listed alongside its reported inhibition.
Species: Rattus norvegicus
PROCEDURE DETAILS: Inhibition of rat brain mitochondrial MAO at 0.008 mmol/L by kynuramine fluorimetric assay
// unit must come after the numeric part

Use these answered entries as a reference point.
CCCCC(CCCC)N1N=C(c2ccc(Cl)cc2)OCC1=O = 11.2%
CCCCC(CCCC)N1N=C(c2ccc3ccccc3c2)OCC1=O = 12.8%
CCCCC(CCCC)N1N=C(c2cc(OC)c(OC)c(OC)c2)OCC1=O = 14%

QUERY: Give the measured inhibition of `CCc1ccc(C2=NN(CCC#N)C(=O)CO2)cc1` .
RESULT: 9.73%

* * *

Below, each entry is listed alongside its reported inhibition.
Species: Rattus norvegicus
PROCEDURE DETAILS: Inhibition of rat brain mitochondrial MAO at 0.8 mmol/L by kynuramine fluorimetric assay
Express it in %; write the number only.

QUERY: Give the measured inhibition of `CCc1ccc(C2=NN(CCC#N)C(=O)CO2)cc1` .
RESULT: 59.7

QUERY: Give the measured inhibition of `CCCCC(CCCC)N1N=C(c2ccc3ccccc3c2)OCC1=O` .
RESULT: 54.6

QUERY: Give the measured inhibition of `CCCCC(CCCC)N1N=C(c2ccc(Cl)cc2)OCC1=O` .
RESULT: 58.8

QUERY: Give the measured inhibition of `CCCCC(CCCC)N1N=C(c2cc(OC)c(OC)c(OC)c2)OCC1=O` .
RESULT: 61.4

* * *

System: Saccharomyces cerevisiae
PROCEDURE DETAILS: Inhibition of chitin synthase-mediated chitin synthesis in yeast at 250 uM by high throughput assay
Calls of active or inactive are those of the source. No cut-off for these calls is given here.
Log the outcome using a class from True for active, False for inactive

Study these solved cases before continuing.
CCCCC(CCCC)N1N=C(c2ccc(Cl)cc2)OCC1=O = True
CCCCC(CCCC)N1N=C(c2cc(OC)c(OC)c(OC)c2)OCC1=O = True

QUERY: Could you check what this test reported for `O=C(NC(=O)c1c(F)cccc1F)Nc1ccc(Cl)cc1` ?
RESULT: False

QUERY: Could you check what this test reported for `CCCCC(CCCC)N1N=C(c2ccc3ccccc3c2)OCC1=O` ?
RESULT: True

QUERY: Could you check what this test reported for `CCCCC(CCCC)N1N=C(c2ccc(Cl)cc2Cl)OCC1=O` ?
RESULT: True

QUERY: Could you check what this test reported for `CCCCC(CCCC)N1N=C(c2ccc3c(c2)OCO3)OCC1=O` ?
RESULT: True

QUERY: Could you check what this test reported for `CCCCC(CCCC)N1N=C(c2cc(C)cc(C)c2)OCC1=O` ?
RESULT: True

QUERY: Could you check what this test reported for `CCc1ccc(C2=NN(CCC#N)C(=O)CO2)cc1` ?
RESULT: True

QUERY: Could you check what this test reported for `CCCCC(CCCC)N1N=C(c2ccc(CC)cc2)OCC1=O` ?
RESULT: True
